# study target: human 11β-HSD2 (Homo sapiens)
# Construct: expressed in transfected cells; host or cells: HEK-293 cells, stably transfected; cell lysate
# Sequence (P80365 whole entry): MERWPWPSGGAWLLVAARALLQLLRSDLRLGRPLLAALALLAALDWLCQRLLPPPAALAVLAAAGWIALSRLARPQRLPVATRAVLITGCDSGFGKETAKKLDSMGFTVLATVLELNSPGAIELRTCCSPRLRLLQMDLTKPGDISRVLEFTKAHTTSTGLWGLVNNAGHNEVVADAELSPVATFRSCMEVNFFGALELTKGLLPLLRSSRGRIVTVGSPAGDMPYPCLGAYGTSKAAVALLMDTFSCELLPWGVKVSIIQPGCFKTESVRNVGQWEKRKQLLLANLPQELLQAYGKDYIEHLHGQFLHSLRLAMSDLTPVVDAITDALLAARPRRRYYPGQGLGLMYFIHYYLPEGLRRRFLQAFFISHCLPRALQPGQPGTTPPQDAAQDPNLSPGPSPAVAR
# assay name: 11β-HSD2 oxidase activity (conversion of radiolabelled cortisol to cortisone) in lysates of stably transfected HEK-293 cells
# Type: biochemical
# condition label: 20 μM compound, 25 nM cortisol substrate, HEK-293 lysate
parameter: 11β-HSD2 % of control

Recorded 11β-HSD2 % of control, per entry:
>>> result("CC(=O)OC1CC[C@]2(C)C3=C(C(=O)C[C@H]2C1(C)C)[C@]1(C)CCC(C(C)CCC(=O)O)[C@@]1(C)CC3=O (some centres unmarked)")
"27.37 % of control"
>>> result("CCC(Sc1nnc(-c2ccc(OC)c(OC)c2)c(-c2ccc(OC)c(OC)c2)n1)C(=O)N(CC)CC (centres unmarked)")
"140 % of control"
>>> result("CC1(C)[C@@H](OCO)CC[C@]2(C)[C@H]3C(=O)C=C4C5=C[C@@](C)(C(=O)O)CC[C@]5(C)CC[C@@]4(C)[C@]3(C)CC[C@@H]12")
"56.95 % of control"

Per the records, this molecule ( CCN(CC(O)COc1cc(C)c(Cl)c(C)c1)S(=O)(=O)O (centres unmarked) ) has 11β-HSD2 % of control equal to 96.77 % of control

Kindly note the recorded 11β-HSD2 % of control for NC(=O)c1c(NC(=O)C2CC=CCC2C(=O)O)sc2c1CCCCC2 (centres unmarked) , which is 102.7 % of control

Recorded result, COc1ccc(CNC(=O)C2CCC(=O)N2C2CCCC2)cc1OC (centres unmarked) , 11β-HSD2 % of control: 136.8 % of control

Item: COCCN1C(=O)C(O)=C(C(=O)c2ccc(OC)c(C)c2)C1c1ccc(C)cc1 (centres unmarked) | 11β-HSD2 % of control: 120.7 % of control

So, CCCCOc1ccc(C(=O)C2=C(O)C(=O)N(CCOC)C2c2cccnc2)c(C)c1 (centres unmarked) ? Its 11β-HSD2 % of control was 53.57 % of control

###

# study target: human 11β-HSD1 (Homo sapiens, UniProt P28845)
# Construct: expressed in transfected cells; host or cells: HEK-293 cells, stably transfected; cell lysate
# Sequence (P28845 whole entry): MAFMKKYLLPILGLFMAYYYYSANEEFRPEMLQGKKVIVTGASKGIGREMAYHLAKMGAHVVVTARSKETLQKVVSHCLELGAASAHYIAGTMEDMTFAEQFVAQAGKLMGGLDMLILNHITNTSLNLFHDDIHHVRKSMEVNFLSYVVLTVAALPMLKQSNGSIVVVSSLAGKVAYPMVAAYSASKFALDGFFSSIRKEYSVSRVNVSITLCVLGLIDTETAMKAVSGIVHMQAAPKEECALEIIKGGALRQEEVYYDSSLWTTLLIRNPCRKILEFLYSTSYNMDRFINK
# assay name: 11β-HSD1 reductase activity (conversion of radiolabelled cortisone to cortisol) in lysates of stably transfected HEK-293 cells
# Format: biochemical
# condition label: 20 μM compound, 100 nM cortisone substrate, HEK-293 lysate
Marks after values point to notes of the source that are not given here.
parameter: 11β-HSD1 % of control

>>> result("COC(=O)[C@@]1(C)CC[C@]2(C)CC[C@]3(C)C(=CC(=O)[C@@H]4[C@@]5(C)CC[C@H](Oc6ccccc6C(=O)O)C(C)(C)[C@@H]5CC[C@]43C)[C@@H]2C1")
"3.879* % of control"
>>> result("COCCN1C(=O)C(O)=C(C(=O)c2ccc(OC)c(C)c2)C1c1ccc(C)cc1 (centres unmarked)")
"46.83 % of control"
>>> result("CC(=O)OC1CC[C@]2(C)C3=C(C(=O)C[C@H]2C1(C)C)[C@]1(C)CCC(C(C)CCC(=O)O)[C@@]1(C)CC3=O (some centres unmarked)")
"2.708* % of control"
>>> result("NC(=O)c1c(NC(=O)C2CC=CCC2C(=O)O)sc2c1CCCCC2 (centres unmarked)")
"41.71 % of control"
>>> result("CSc1nc2cc(C)c(C)cc2n1C1OC(CO)C(O)C1O (centres unmarked)")
"92.03 % of control"

// recorded 11β-HSD1 % of control for CCN(CC)S(=O)(=O)c1ccc(Cl)c(C(=O)Nc2nc3ccc(S(C)(=O)=O)cc3s2)c1 : 85.36 % of control

Sure, the documented 11β-HSD1 % of control for CCOc1ccc(C2c3cc(OCC)c(OCC)cc3CC(=O)N2c2ccc(C(=O)O)cc2)cc1OCC (centres unmarked) is 88.22 % of control

11β-HSD1 % of control reported for this molecule CCN(CC)S(=O)(=O)c1ccc(OC)c(-c2nnc(-c3cc(S(=O)(=O)N(CC)CC)ccc3OC)o2)c1 : 75.29 % of control
